# target: DLK (Homo sapiens, UniProt Q12852)
# Construct: 10 nM DLK, catalytic domain, Carna Biosiences; purchased Carna Biosciences ('Carna Biosiences' [sic])
# Sequence (Q12852 125-366 limits assumed): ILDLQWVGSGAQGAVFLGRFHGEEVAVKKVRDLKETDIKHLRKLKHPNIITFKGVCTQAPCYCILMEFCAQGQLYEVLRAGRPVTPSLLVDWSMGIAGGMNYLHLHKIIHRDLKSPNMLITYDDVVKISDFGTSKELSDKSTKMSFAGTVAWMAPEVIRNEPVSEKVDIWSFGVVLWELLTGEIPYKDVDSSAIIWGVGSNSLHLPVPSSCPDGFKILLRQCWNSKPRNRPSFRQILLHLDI
# method summary: DLK biochemical assay (TR-FRET, MKK7 phosphorylation)
Recorded pIC50 for the following molecules
Lab note — pIC50 values are minus log10 of concentrations in M.

Known pIC50 results, listed for orientation:
INSERT INTO assay_data (molecule, value_observed) VALUES
  ('CC[C@@H](c1ccc(OC(F)(F)F)nc1)n1cc(-c2cc(-c3cnn(CC(F)(F)F)c3)n3nc(N)nc3c2)cn1 (single isomer, unassigned)', 8.01),
  ('C[C@@H](CO)c1nnc(-c2cc(-c3cnn(Cc4cccc5cn[nH]c45)c3)cn3nc(N)nc23)s1', 7.92),
  ('CC(C)C(c1ccc(C(F)F)nc1)n1cc(-c2cc(-c3ccc(C4CC4)nc3)n3nc(N)nc3c2)cn1 (racemic) [II-52]', 8.22);

For the molecule shown here, CCC(c1ccc(C(F)(F)F)nc1)n1cc(-c2cc(-c3cnn(CC(F)(F)F)c3)c3nc(N)nn3c2)cn1 (racemic) [II-111] , give the reported pIC50.
7.85

Name the reported pIC50 value associated with the molecule Nc1nc2cc(-c3cnn(C(c4ccc(C(F)(F)F)nc4)C4CCOCC4)c3)cc(-c3ccnc(C(F)(F)F)c3)n2n1 (racemic) [II-34]
7.82

* * *

# target: DLK (Homo sapiens)
# Construct: 10 nM DLK, catalytic domain, Carna Biosiences; purchased Carna Biosciences ('Carna Biosiences' [sic])
# method summary: DLK biochemical assay (TR-FRET, MKK7 phosphorylation)
Measured IC50 values are reported for all entries that follow.

For orientation, consider the following solved cases.
INSERT INTO assay_data (molecule, value_observed) VALUES
  ('CCC(c1ccc(C(F)(F)F)nc1)n1cc(-c2cc(-c3ccnc(OC(F)F)c3)c3nc(N)nn3c2)cn1 (single isomer, unassigned) [II-27]', '30 nM'),
  ('CCC(c1ccc(C(F)(F)F)cc1)n1cc(-c2cc(-c3cnn(C)c3)c3nc(N)nn3c2)cn1 (racemic) [II-99]', '9.2 nM'),
  ('CC(C)C(c1ccc(C(F)(F)F)nc1)n1cc(-c2cc(-c3cnn(C4CCCC4)c3)n3nc(N)nc3c2)cn1 (single isomer, unassigned) [II-144]', '27 nM'),
  ('CC(C)C(c1ccc(C(F)(F)F)nc1)n1cc(-c2cc(-c3ccc(C4CC4)nc3)c3nc(N)nn3c2)cn1 (single isomer, unassigned) [II-45]', '9.5 nM'),
  ('CCC(c1ccc(C(F)(F)F)nc1)n1cc(-c2cc(-c3ccc(=O)n(C(F)F)c3)n3nc(N)nc3c2)cn1 (single isomer, unassigned) [II-181]', '2.7 nM'),
  ('CCC(c1ccc(C(F)(F)F)nc1)n1cc(-c2cc(-c3cc(CO)ccc3Cl)c3nc(N)nn3c2)cn1 (single isomer, unassigned) [II-2]', '170 nM'),
  ('CCS(=O)(=O)c1cccc(-c2cc(-c3cnn(C(c4ccc(C(F)(F)F)nc4)C4CCOCC4)c3)cn3nc(N)nc23)c1 (single isomer, unassigned) [II-18]', '0.3 nM'),
  ('CCC(c1ccc(C(F)(F)F)nc1)n1cc(-c2cc(-c3ccc(C(F)(F)F)nc3)c3nc(N)nn3c2)cn1 (single isomer, unassigned) [II-39]', '24 nM');

Give DLK (Homo sapiens) IC50 for Nc1nc2cc(-c3cnn(C4CCN(C5COC5)CC4)c3)cc(-c3ccc(C4CC4)nc3)n2n1
210 nM

Tell me reported IC50 for CC(C)C(c1ccc(C(F)(F)F)nc1)n1cc(-c2cc(-c3ccc(C4(O)CCC4)nc3)n3nc(N)nc3c2)cn1 (racemic) [II-80] , tested with DLK (Homo sapiens).
21 nM

* * *

# target: DLK (Homo sapiens, UniProt Q12852)
# Construct: 10 nM DLK, catalytic domain, Carna Biosiences; purchased Carna Biosciences ('Carna Biosiences' [sic])
# method summary: DLK biochemical assay (TR-FRET, MKK7 phosphorylation)
assay endpoint: IC50 (nM)
Lab book: enter the figure in nM, no units written.

INSERT INTO assay_data (molecule, assay_endpoint, value_observed) VALUES
  ('CCC(c1ccc(C(F)F)nc1)n1cc(-c2cc(-c3ccc(C4CC4)nc3)n3nc(N)nc3c2)cn1 (racemic) [II-67]', 'IC50', 12),
  ('CC[C@@H](c1ccc(F)cc1)n1cc(-c2cc(-c3cnn(CC(F)(F)F)c3)n3nc(N)nc3c2)cn1', 'IC50', 15);

Field request: IC50 | item: Nc1nc2c(-c3cnn(CC4CC4(F)F)c3)cc(-c3cnn(Cc4ccccc4)c3)cn2n1 (racemic)
12

* * *

Overview of reported log10 IC50 across a group of compounds:
# target: DLK (Homo sapiens)
# Construct: 10 nM DLK, catalytic domain, Carna Biosiences; purchased Carna Biosciences ('Carna Biosiences' [sic])
# Sequence (Q12852 125-366 limits assumed): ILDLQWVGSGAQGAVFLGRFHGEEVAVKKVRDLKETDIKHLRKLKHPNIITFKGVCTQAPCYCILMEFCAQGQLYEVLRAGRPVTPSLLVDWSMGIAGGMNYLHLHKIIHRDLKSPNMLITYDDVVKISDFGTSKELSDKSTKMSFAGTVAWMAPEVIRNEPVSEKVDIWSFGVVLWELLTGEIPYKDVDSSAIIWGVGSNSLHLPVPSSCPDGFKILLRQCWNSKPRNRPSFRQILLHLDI
# method summary: DLK biochemical assay (TR-FRET, MKK7 phosphorylation)
# measurement setup: DLK catalytic domain, MKK7 substrate, 60 μM ATP
# Experimental: DLK assay is a biochemical assay format designed to screen for inhibitors of DLK. Enzymatic activity of DLK is measured by monitoring phosphorylation of the physiological substrate MKK7 (MAP2K7, Dual specificity mitogen-activated protein kinase kinase 7). Phosphorylation is detected by a TR-FRET system whereby His-tagged MKK7 is labeled by a XL665-labeled anti-His antibody (FRET acceptor, emission 665 nm). […]
Form field - Quantity: IC50; Unit: nM; Scale: log10

INSERT INTO measurements (compound, assay_endpoint, value_observed) VALUES
  ('CC[C@H](C)NC(=O)c1cc(-c2cnn(C(c3ccc(F)cc3)C(C)C)c2)cn2nc(N)nc12 (single isomer, unassigned) [Example I-44]', 'log10 IC50', 1.52),
  ('CCC(c1ccc(C(F)(F)F)nc1)n1cc(-c2cc(C(=O)N[C@@H](C)CO)c3nc(N)nn3c2)cn1 (mixture of isomers) [Example I-151]', 'log10 IC50', 0.84),
  ('CC[C@H](C)NC(=O)c1cc(-c2cnn(C(c3ccccc3)C3CC(F)(F)C3)c2)cn2nc(N)nc12 (single isomer, unassigned) [Example I-32]', 'log10 IC50', 1.75),
  ('CC[C@H](C)NC(=O)c1cc(-c2cnn(C3CCc4ccccc43)c2)cn2nc(N)nc12 (single isomer, unassigned) [Example I-14]', 'log10 IC50', 1.08);

Look at this compound and give its reported log10 IC50. CC[C@H](C)NC(=O)c1cc(-c2cnn(C(c3ccc(C(F)(F)F)nc3)C3CCOCC3)c2)cc2nc(N)nn12 (single isomer, unassigned) [Example I-111]
-0.30

Look at this compound and give its reported log10 IC50. CCC(c1ccc(Cl)s1)n1cc(-c2cc(C(=O)N[C@@H](C)CC)c3nc(N)nn3c2)cn1 (single isomer, unassigned) [Example I-131]
0.18

Reported log10 IC50, compound CC[C@H](C)NC(=O)c1cc(-c2cnn(C(c3ccccc3)C(C)(C)C)c2)cn2nc(N)nc12 (mixture of isomers) [Example I-34] : ____
0.98

Look up log10 IC50: CC[C@H](C)NC(=O)c1cc(-c2cnn(C(c3ccc(C(F)(F)F)nc3)C3CCOCC3)c2)cc2nc(N)nn12 (single isomer, unassigned) [Example I-112]
0.90

# log10 IC50 lookup, item CC[C@H](C)NC(=O)c1cc(-c2cnn([C@H](c3ccc(C(F)F)nc3)C(C)C)c2)cc2nc(N)nn12 (single isomer, unassigned)
-0.05

Fill blank: measured log10 IC50 of the compound Nc1nc2cc(-c3cnn(C(c4ccc(C(F)(F)F)nc4)C4CCOCC4)c3)cc(C(=O)N[C@H]3CCOC3)n2n1 (mixture of isomers) [Example I-183] is ____.
0.23

# query: log10 IC50 of entry CC[C@H](C)NC(=O)c1cc(-c2cnn(C(CC(F)(F)F)c3ccccc3)c2)cn2nc(N)nc12 (mixture of isomers) [Example I-37]
0.56

log10 IC50 for Nc1nc2cc(-c3cnn(C4CCOCC4)c3)cc(C(=O)N[C@H]3CCOC3)n2n1 (single isomer, unassigned) ?
2.34

Which log10 IC50 value is on record for CC[C@@H](c1ccc(OC(F)(F)F)nc1)n1cc(-c2cc(C(=O)NC(C)(C)CO)c3nc(N)nn3c2)cn1 (single isomer, unassigned) ?
0.74

Provenance of the data: patent US20230086702A1
